B1: TPR t1 (parent)
chain: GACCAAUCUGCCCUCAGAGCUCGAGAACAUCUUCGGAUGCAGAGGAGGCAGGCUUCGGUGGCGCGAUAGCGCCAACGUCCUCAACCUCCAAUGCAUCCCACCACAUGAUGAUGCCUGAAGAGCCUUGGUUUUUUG

Variants of: B1
Assay: polymerase ribozyme fitness, log enrichment relative to wild type (log ratio); higher = more active; in vitro selection for triplet polymerase activity
polymerase ribozyme fitness (log ratio) values for the variants below.

mutations	polymerase ribozyme fitness (log ratio)
U7C C70U	-1.31
C49A C56A C64U U130C	-0.336
C104A G110U	-3.77
U7G A46G C124A	1.74
C4U A37U C40U A83G	-2.17
C22G G63A C114U	-3.48
G60C C104U U126A	-1.46
C20G G61U C79A G117C C123A	-6.44
C12G G61C C104U C115G U133C	-5.69
A26U G39A C49G G61A C88U C124G	-3.77
C15U C72A C73A U81A A84G	-4.77
A2C C3G A90U C115U	-3.68
C49A G77A C82A U92C G113U C114U	-2.49
U59G C102A	-1.41
C62A C115U	-2.53
C40G C56U A91C	-2.49
G23C C123A	-6.41
C56G G117U	-2.83
G63A C85A	-2.01
U7C G57A	-0.108
C11G C15A G61U U125G	-0.123
U21A A43U C73U A90G	-2.19

Origin of measurements: the RNAGym collection of RNA variant scans (doi:10.1073/pnas.2313332121)
